All values here come from PubChem BioAssay (Tox21).

# assay: Caspase-3/7 induction in HepG2 cells by small molecules, qHTS assay (AID 1346978); further: nearly all actives have a fitted effect of over 15% in size
# test.parameters: HepG2 caspase-3/7 activation, Caspase-Glo luminescence, 17 h; series mostly up to 92.4 µM
Results filed as inconclusive are left out. The source made the active and inactive calls. The call rests on the fitted dose curve; in most records, active means well fitted activation curve with a large enough effect in the repeat runs; inconclusive means weak or mixed curves; inactive means flat fitted curve, though single readings scatter.
Classes used: active, inactive

[[record]]
compound = "O=[N+]([O-])c1ccc(CO)cc1"
assigned_category = "inactive"

[[record]]
compound = "CCC(C)(C)c1ccc(CC(C)CN2C[C@@H](C)O[C@@H](C)C2)cc1 (some centres undefined)"
assigned_category = "inactive"

[[record]]
compound = "CC1(C)[C@H]2CC[C@]1(C)C(=O)C2"
assigned_category = "inactive"

[[record]]
compound = "CCCCCN=C(N)N/N=C/c1c[nH]c2ccc(OC)cc12"
assigned_category = "active"

[[record]]
compound = "Oc1ccc2c(c1)CCC2"
assigned_category = "inactive"

[[record]]
compound = "CCCCCCCCCCCC(=O)Cl"
assigned_category = "inactive"

[[record]]
compound = "CC1=C(/C=C/C(C)=C/C=C/C(C)=C\\C(=O)O)C(C)(C)CCC1"
assigned_category = "inactive"

[[record]]
compound = "C/C(=N\\[Si](C)(C)C)O[Si](C)(C)C"
assigned_category = "inactive"

[[record]]
compound = "O=C(NCc1ncc(C(F)(F)F)cc1Cl)c1c(Cl)cccc1Cl"
assigned_category = "active"

[[record]]
compound = "Cc1ccc(C=O)cc1"
assigned_category = "inactive"

[[record]]
compound = "Cc1ccc(Cl)c(N)c1Cl"
assigned_category = "inactive"

[[record]]
compound = "CCN(CC)c1ccc(C=O)cc1"
assigned_category = "inactive"

[[record]]
compound = "C=Cc1ccc(O)c(OC)c1"
assigned_category = "inactive"

[[record]]
compound = "CCSCC"
assigned_category = "inactive"


====

# assay: Caspase-3/7 induction in CHO-K1 cells by small molecules, qHTS assay (AID 1346980); further: nearly all actives have a fitted effect of over 15% in size
# test.parameters: CHO-K1 caspase-3/7 induction, Caspase-Glo luminescence, 17 h; series mostly up to 92.4 µM
Activity calls are given as the source filed them. Calls come from the whole dose curve; as a rule, active = well fitted activation curve with a large enough effect in the repeat runs; inconclusive = weak or mixed curves; inactive = flat fitted curve, though single readings scatter.
Outcomes: class 1 (active), class 0 (inactive)

[[record]]
molecule = "O=C(CCN1CCC(c2ccccc2)C1)c1ccc2c(c1)OCCO2 (configuration not stated)"
assigned_category = "class 0"

[[record]]
molecule = "CN(C)CCOc1ccc(/C(=C(/CCCl)c2ccccc2)c2ccccc2)cc1"
assigned_category = "class 1"

[[record]]
molecule = "C/C=C/C(=O)C1=C(C)C=CCC1(C)C"
assigned_category = "class 0"

[[record]]
molecule = "O=C(c1ccccc1)c1ccc(Cl)cc1"
assigned_category = "class 0"

[[record]]
molecule = "C[C@H]1O[C@@H](O[C@H]2CC[C@@]3(C)[C@H](CC[C@@H]4[C@@H]3C[C@@H](O)[C@]3(C)[C@@H](C5=CC(=O)OC5)CC[C@]43O)C2)C[C@H](O)[C@@H]1O[C@H]1C[C@H](O)[C@H](O[C@H]2C[C@H](O)[C@H](O[C@@H]3O[C@H](CO)[C@@H](O)[C@H](O)[C@H]3O)[C@@H](C)O2)[C@@H](C)O1"
assigned_category = "class 0"

[[record]]
molecule = "CCCCCCCCCCCCN1CCCC1=O"
assigned_category = "class 0"

[[record]]
molecule = "Cc1ccc2n[nH]nc2c1"
assigned_category = "class 0"

[[record]]
molecule = "CCCCCCCCCCCC(=O)Cl"
assigned_category = "class 0"

[[record]]
molecule = "ClC(c1ccccc1)(c1ccccc1)c1ccccc1"
assigned_category = "class 0"

[[record]]
molecule = "C=CCc1cc(S(=O)(=O)c2ccc(O)c(CC=C)c2)ccc1O"
assigned_category = "class 0"

[[record]]
molecule = "C/C=C/C(=O)OCC(C)C"
assigned_category = "class 0"

[[record]]
molecule = "C/C(=N\\[Si](C)(C)C)O[Si](C)(C)C"
assigned_category = "class 0"

